assay: Bioavailability in dog; assay type: ADME, organism-based, Canis lupus familiaris; conditions: in vivo
Give measured bioavailability for each item. Keep answers brief.
Answers are plain numbers, in %.

Check out these entries, answers already filled in.
INSERT INTO measurements (smiles, measurement_units, meas_value) VALUES
  ('O=C1N(CC2CC2)[C@H](Cc2ccccc2)[C@H](O)[C@@H](O)[C@@H](Cc2ccccc2)N1CC1CC1', '%', 48),
  ('O=C1N(Cc2cccc(O)c2)[C@H](Cc2ccccc2)[C@H](O)[C@@H](O)[C@@H](Cc2ccccc2)N1Cc1cccc(O)c1', '%', 16);

For the next question, use this molecule.
-- ask GET /values?readout=bioavailability&item= O=C1N(Cc2ccc(CO)cc2)[C@H](Cc2ccccc2)[C@H](O)[C@@H](O)[C@@H](Cc2ccccc2)N1Cc1ccc(CO)cc1
-- reply 37

----------
molecular target: Human immunodeficiency virus type 1 protease (Human immunodeficiency virus 1, UniProt Q72874)
METRIC NAME: pKi
Give bare numbers, as −log10 of the molar value.

INSERT INTO measurements (compound, meas_value) VALUES
  ('O=C1N(Cc2cccnc2)[C@H](Cc2ccccc2)[C@H](O)[C@@H](O)[C@@H](Cc2ccccc2)N1Cc1cccnc1', 8.01),
  ('CCCCN1C(=O)N(CCCC)[C@H](Cc2ccccc2)[C@H](O)[C@@H](O)[C@H]1Cc1ccccc1', 8.85),
  ('O=C1N(Cc2ccncc2)[C@H](Cc2ccccc2)[C@H](O)[C@@H](O)[C@@H](Cc2ccccc2)N1Cc1ccncc1', 7.05),
  ('O=C1N(Cc2ccccc2Cl)[C@H](Cc2ccccc2)[C@H](O)[C@@H](O)[C@@H](Cc2ccccc2)N1Cc1ccccc1Cl', 6.62),
  ('COc1ccccc1CN1C(=O)N(Cc2ccccc2OC)[C@H](Cc2ccccc2)[C@H](O)[C@@H](O)[C@H]1Cc1ccccc1', 5.73),
  ('O=C1N(Cc2ccc(Cl)cc2)[C@H](Cc2ccccc2)[C@H](O)[C@@H](O)[C@@H](Cc2ccccc2)N1Cc1ccc(Cl)cc1', 8.28),
  ('O=C1N(Cc2ccc3ccccc3c2)[C@H](Cc2ccccc2)[C@H](O)[C@@H](O)[C@@H](Cc2ccccc2)N1CC1CC1', 8.82),
  ('CCC(C)CCN1C(=O)N(CCC(C)CC)[C@H](Cc2ccccc2)[C@H](O)[C@@H](O)[C@H]1Cc1ccccc1 (stereo not given in full)', 7.44);

Please give pKi, item by item, for the list that follows.
1. O=C1N(Cc2cccc([N+](=O)[O-])c2)[C@H](Cc2ccccc2)[C@H](O)[C@@H](O)[C@@H](Cc2ccccc2)N1Cc1cccc([N+](=O)[O-])c1
2. O=C1N(Cc2cccc(O)c2)[C@H](Cc2ccccc2)[C@H](O)[C@@H](O)[C@@H](Cc2ccccc2)N1Cc1cccc(O)c1
3. O=C1N(CC2CCCCC2)[C@H](Cc2ccccc2)[C@H](O)[C@@H](O)[C@@H](Cc2ccccc2)N1CC1CCCCC1

-- reply
8.55
9.92
7.43

Batch request: pKi per item, same order as input.
1. O=C1N(Cc2cccc(O)c2)[C@H](Cc2ccccc2)[C@H](O)[C@@H](O)[C@@H](Cc2ccccc2)N1Cc1ccc2ccccc2c1
2. COCCN1C(=O)N(CCOC)[C@H](Cc2ccccc2)[C@H](O)[C@@H](O)[C@H]1Cc1ccccc1

-- reply
1. 9.48
2. 6.10

Provide reported pKi for each item, in the same order as listed.
1. C=CCN1C(=O)N(Cc2ccc3ccccc3c2)[C@H](Cc2ccccc2)[C@H](O)[C@@H](O)[C@H]1Cc1ccccc1
2. CCOCCN1C(=O)N(CCOCC)[C@H](Cc2ccccc2)[C@H](O)[C@@H](O)[C@H]1Cc1ccccc1

-- reply
[8.85, 5.96]
